The values you see were collected from paper PMC3904506.

# ASSAY_TARGET: CDA variant K27/T70 (Homo sapiens, UniProt P32320, A70T)
# Sequence (P32320 whole entry A70T): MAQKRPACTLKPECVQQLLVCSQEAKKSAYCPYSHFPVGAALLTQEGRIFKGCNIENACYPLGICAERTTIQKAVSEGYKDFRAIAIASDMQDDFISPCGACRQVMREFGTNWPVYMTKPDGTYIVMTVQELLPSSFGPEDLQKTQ
# ASSAY_DETAILS: Inhibition of deoxycytidine deamination, K27/T70 variant
READOUT_NAME: Ki

(Q) Look up Ki for this compound: Nc1ccn([C@@H]2O[C@H](CO)[C@@H](O)[C@H]2O)c(=O)c1
(A) 2400 nM

====

# ASSAY_TARGET: CDA variant Q27/A70 (Homo sapiens, UniProt P32320, K27Q)
# Sequence (P32320 whole entry K27Q): as the sequence (P32320 whole entry A70T) above, with K27Q, T70A counted along it
# ASSAY_DETAILS: Inhibition of deoxycytidine deamination, Q27/A70 variant
READOUT_NAME: pKi
Kindly note that pKi refers to -log10 of the concentration in mol/L and answer with the value alone.

(Q) // query pKi value for entry Nc1ccn([C@@H]2O[C@H](CO)[C@@H](O)[C@H]2O)c(=O)c1
(A) 5.74
